Test system: HOP-62 NSCLC
protocol.text: NCI tumour cell line growth inhibition, 48 h
Each entry below carries its reported TGI.
Kindly answer with a numeric value in µM, unit omitted.

These solved cases illustrate the format of a correct answer.
Cc1cccc2c(=O)cc(-c3ccccc3)[nH]c12 ... 42.6
CCN(CC)CCC(=O)Nc1ccc2c(c1)C(=O)c1ccc(NC(=O)CCN(CC)CC)cc1C2=O ... 17.6
N#CCCN(CCC#N)c1ccc(/C=C2\N=C(c3cc([N+](=O)[O-])ccc3Cl)OC2=O)cc1 ... 95.7

Now consider the entry below.
The reported HOP-62 NSCLC TGI of O=C1/C(=C/c2cccc([N+](=O)[O-])c2)COc2ccc(O)cc21 is 12.1

----------
Each entry below carries its reported TGI.
System: NCI-H226 lung
protocol.text: NCI tumour cell line growth inhibition, 48 h
Kindly answer with a numeric value in µM, unit omitted.

These solved cases illustrate the format of a correct answer.
CCOc1cc2c(cc1O)/C(=N\OC)C[C@@H]1[C@@H]2CC[C@]2(C)[C@@H](O)CC[C@@H]12 ... 0.654
O=C(O)c1ccccc1[Se][Se]c1ccccc1C(=O)O ... 31.4
CO[C@H](C(=O)[C@@H](O)[C@@H](C)O)[C@@H]1Cc2cc3cc(O[C@H]4C[C@@H](O[C@H]5C[C@@H](O)[C@H](O)C(C)O5)[C@H](O)C(C)O4)c(C)c(O)c3c(O)c2C(=O)[C@H]1O[C@H]1C[C@@H](O[C@H]2C[C@@H](O[C@H]3C[C@](C)(O)C(=O)C(C)O3)[C@@H](O)C(C)O2)[C@H](O)C(C)O1 (stereo partly drawn) ... 0.3
CC(C)CCC[C@@H](C)[C@H]1CC[C@H]2[C@@H]3CC=C4C[C@@H](C(C(=O)O)C(=O)O)CC[C@]4(C)[C@H]3CC[C@]12C ... 0.622
CCCNC1=C2CC(C)CC(OC)[C@@H](O)[C@H](C)/C=C(\C)C(OC(N)=O)C(OC)/C=C\C=C(/C)C(=O)NC(=CC1=O)C2=O (stereo partly drawn) ... 5.21

Reported TGI for Cc1ccc(N=Nc2ccc(N(CCC#N)CCC#N)cc2C)c(Br)c1 was 61.5

Reported TGI for CCCCCN(CCCCC)CCCNc1c2c(nc3ccc(Cl)cc13)CCCC2 was 6.71

Reported TGI for NC(=O)c1cccc2cn(-c3ccc([C@@H]4CCCNC4)cc3)nc12 was 30.1

----------
Test system: HCT-15 colon
protocol.text: NCI tumour cell line growth inhibition, 48 h
observation.type: TGI

These solved cases illustrate the format of a correct answer.
Cc1cc(N(CCC#N)CCC#N)ccc1/C(N=Nc1ccc(Cl)cc1)=N\NC(=O)c1ccccc1 ... > 100 µM
O=C1OCC(O)=C1C(c1ccc(Cl)cc1)c1cc2c(cc1O)OCO2 (stereo unspecified) ... > 100 µM
C=C(CN1CCN(c2ccc(Cl)cc2F)CC1)c1ccc(C(=O)Nc2ccccc2N)cc1 ... > 100 µM

The reported HCT-15 colon TGI of Cc1cc(C)nc(NS(=O)(=O)c2ccc(NC(=O)c3ccc(Cl)c4c(Nc5ccc(S(=O)(=O)Nc6nc(C)cc(C)n6)cc5)c5ccccc5nc34)cc2)n1 is > 100 µM

The reported HCT-15 colon TGI of CCC(CO)Nc1nc2ccc(Cl)cc2c2ccccc12 (stereo unspecified) is 15.4 µM
